tgt: T1, hCD27-muFc (human; mouse, UniProt P26842 20-192)
T1 construct: range 1-192; Secreted from HEK293, Protein A purified; not shown: mouse IgG1-Fc (muFc), residues 98 to 324 of UniProt P01868
T1 sequence (looked up): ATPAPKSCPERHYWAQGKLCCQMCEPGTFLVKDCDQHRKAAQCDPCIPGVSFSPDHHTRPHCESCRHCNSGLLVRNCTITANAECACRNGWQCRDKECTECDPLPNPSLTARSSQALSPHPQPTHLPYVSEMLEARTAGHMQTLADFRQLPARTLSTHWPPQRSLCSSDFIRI
assaySummary: BLI (Octet K2), antibody on Protein A biosensor, hCD27-muFc in solution
readout: koff (s⁻¹)

INSERT INTO results (binder, observedresult) VALUES
  ('12996 (antibody, human IgG1, V domains shown, not shown: a dimerising Fc or GST, Humanized m2F11, human IgG1 / kappa) VH: EVHLQESGGGLVKPGGSLRLSCAASGFTFSSYAMSWVRQAPEKGLEWVAIIGDGDTYTYYPDSVKGRFTISRDNSKNRLYLQMNSLKSEDTAMYYCVRTRGGPFDYWGQGTTLTVSS VL: EILLTQSPAFMSATPGEKVTITCSASSSVGSMHWYQQKSGQSPRRLIYDTSKLASGVPDRFSGSGSGTDYTLTISSLEAEDAATYYCQQWSSIPPTFGAGTTLELK', 0.000368),
  ('14822 (antibody, human IgG1, V domains shown, not shown: a dimerising Fc or GST, Humanized m2F11, human IgG1 / kappa) VH: EVHLQESGGGLVKPGGSLRLSCAASGFTFSSYAMSWVRQMPGKGLEWVAIIGDGDTYTYYPDSVKGRFTISRDNSKNTLYLQMNSLKSEDTAMYYCVRTRGGPFDYWGQGTTLTVSS VL: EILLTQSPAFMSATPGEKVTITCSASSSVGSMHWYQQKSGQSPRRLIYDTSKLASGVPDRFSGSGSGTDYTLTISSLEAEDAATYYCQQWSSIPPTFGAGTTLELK', 0.000499),
  ('m2F11 (antibody, human IgG1, V domains shown, Chimeric antibody: mouse VH/VL on human IgG1 / human kappa constant regions; Parent of the humanized antibodies; also called clone 2F11; not shown: human IgG1 constant region, UniProt P01857) VH: EVQLQESGGDLVKPGGSLKLSCAASGFTFSSYAMSWVRQTPEKRLEWVAIIGDGDTYTYYPDSVKGRFTVSRDNAKNNLYLQMSHLKSEDTAMYYCVRTRGGPFDYWGQGTTLTVSS VL: DIVLTQTPALMSASPGEKVTMTCSASSSVGSMHWYQQKSGTSPKRWIYDTSKLASGVPARFSGSGSGTSYSLTISSMEAEDAATYYCQQWSSIPPTFGAGTTLELK', 0.000108);
